# assay.overview: Inhibition of ATP synthase in Mycobacterium smegmatis inverted membrane vesicles using NADH as substrate incubated for 60 mins by luciferin-luciferase reaction based bioluminescence assay
# Set-up: species or system Mycolicibacterium smegmatis
measured.metric: IC50 (nM)
I only need the number, in nM, no unit after it.

• Cc1ccc2nc(-c3ccccc3)c(OCCOc3ccc(F)cc3)n2c1 = 50
• Fc1ccc(OCCOc2c(-c3ccccc3)nc3ccccn23)cc1 = 80
• N#Cc1ccc(-c2c(NCc3ccccn3)c(=O)c2=O)cc1 = 66600

Entry O=c1c(NCc2ccccn2)c(-c2ccc(C(F)(F)F)cc2)c1=O — recorded IC50 = 300

In plain terms, Cc1ccc2nc(-c3ccc(F)cc3)c(OCCCNS(=O)(=O)c3ccc(F)cc3)n2c1 has a documented IC50 of 700

Kindly note the recorded IC50 for Fc1ccc(OCCOc2c(-c3ccccc3)nc3ccc(Cl)cn23)cc1 , which is 40

Notebook: Cc1ccc2nc(-c3ccc(F)cc3)c(OCCCOc3cncc(F)c3)n2c1 , IC50 read as 60

For record Cc1ccc2nc(-c3ccccc3)c(OCCCN3CCN(C)CC3)n2c1 the listed IC50 is 6400

Given item O=c1c(NCc2ccccn2)c(-c2ccc(N3CCOCC3)cc2)c1=O , the value recorded as its IC50 is 30

----------
# System: Mycobacterium tuberculosis
# assay.overview: Antimycobacterial activity against Mycobacterium tuberculosis H37Rv by turbidometric method
# Assay type: functional
Listed next: entries and their corresponding MIC80.
Report the figure in µM without appending any unit label.

• Cc1ccc2nc(-c3ccc(F)cc3)c(OCCCOc3ccc(C)nc3C)n2c1 = 6.3
• Cc1ccc2nc(-c3ccc(F)cc3)c(OCCCNc3cnc(C)c(Br)c3)n2c1 = 0.8
• c1ccc(OCCCOc2c(-c3ccccc3)nc3ccccn23)cc1 = 1.6
• Cc1ccc2nc(-c3ccc(F)cc3)c(OCCOc3ccc(F)cc3)n2c1 = 3.1
• O=c1c(NCc2ccccn2)c(-c2ccc(C(F)(F)F)cc2)c1=O = 6.2

Let us move to another entry and its MIC80.
molecule N#Cc1ccc(-c2c(NCc3ccccn3)c(=O)c2=O)cc1 , MIC80 observed: 100

----------
# assay.overview: Selectivity index, ratio of IC50 for human A549 cells to MIC for Mycobacterium tuberculosis H37Rv
# Format: toxicity
# reported.conditions: read-out: Selectivity Index
measured.metric: Selectivity ratio
# print the numeric value only

Measured Selectivity ratio of Clc1ccc2nc(-c3ccccc3)c(OCCN3CCOCC3)n2c1 : 0.5

----------
# assay.overview: Selectivity index, ratio of IC50 for human THP1 cells to MIC for Mycobacterium tuberculosis H37Rv
# Type: toxicity
# reported.conditions: read-out: Selectivity Index
measured.metric: Selectivity ratio
Respond numerically, and do not add a unit to the figure.

Lab note: measured Selectivity ratio of Clc1ccc2nc(-c3ccccc3)c(OCCN3CCOCC3)n2c1 was 0.5

----------
# MIC80 values compiled below
# Test system: Mycobacterium tuberculosis
# assay.overview: Antimycobacterial activity against Mycobacterium tuberculosis H37Rv by turbidometric method
# Format: functional

Study these solved cases before continuing.
• Cc1ccc2nc(-c3ccc(F)cc3)c(OCCCOc3ccc(C)nc3)n2c1 = < 0.8 µM
• Cc1ccc2nc(-c3ccc(F)cc3)c(OCCNC(=O)c3ccc(C)nc3)n2c1 = > 200 µM
• O=c1c(NCc2ccccc2)c(-c2ccc(N3CCOCC3)cc2)c1=O = > 100 µM
• Clc1ccc2nc(-c3ccccc3)c(OCCN3CCOCC3)n2c1 = > 200 µM
• O=c1c(NCc2ccccn2)c(-c2ccc(N3CCOCC3)cc2)c1=O = 0.5 to 0.8 µM

Form: item Cc1ccc2nc(-c3ccc(F)cc3)c(OCCCN3CCN(c4ccccc4)CC3)n2c1 ; test system Mycobacterium tuberculosis; MIC80: < 0.8 µM

GET /values?item= Cc1ccc2nc(-c3ccc(F)cc3)c(OCCCNS(=O)(=O)c3ccc(F)cc3)n2c1 &system= Mycobacterium tuberculosis returns MIC80: 1.6 µM

----------
# Tested on: Mycolicibacterium smegmatis
# assay.overview: Inhibition of cytochrome c oxidase in Mycobacterium smegmatis inverted membrane vesicles lacking cytochrome-bd complex assessed as reduction of oxygen consumption treated between 250 to 450 secs post NADH addition
Active and inactive are the calls of the source. The calls are words filed in the database; no cut-off is given here.
Permitted responses: active, inactive

Solved entries:
- Cc1ccc2nc(-c3ccc(F)cc3)c(OCCCOc3cncnc3)n2c1: active
- Cc1ccc2nc(-c3ccc(F)cc3)c(OCCOc3ccc(F)cc3)n2c1: active
- Cc1ccc2nc(-c3ccccc3)c(OCCOc3ccc(F)cc3)n2c1: active
- Cc1ccc2nc(-c3ccccc3)c(OCCCOc3ccccc3)n2c1: active
- Fc1ccc(OCCOc2c(-c3ccccc3)nc3ccc(Cl)cn23)cc1: active

Outcome logged for COc1nc2ccc(Br)cc2cc1[C@@H](c1ccccc1)[C@@](O)(CCN(C)C)c1cccc2ccccc12 in this assay:
inactive

----------
# assay.overview: Inhibition of ATP synthase in Mycobacterium smegmatis inverted membrane vesicles using NADH as substrate incubated for 60 mins by luciferin-luciferase reaction based bioluminescence assay
# Design: species or system Mycolicibacterium smegmatis
Reported IC50 values for the following compounds.
Express it in nM; write the number only.

The examples below pair each entry with its known result.
• Clc1ccc2nc(-c3ccccc3)c(OCCN3CCOCC3)n2c1 = 36100
• O=c1c(NCc2ccc(-c3ccccc3)cn2)c(-c2ccc(N3CCOCC3)cc2)c1=O = 9500
• O=c1c(NCc2cnccn2)c(-c2ccc(N3CCOCC3)cc2)c1=O = 770

c1ccc(OCCCOc2c(-c3ccccc3)nc3ccccn23)cc1 yielded IC50 of 130

GET /value?item= Cc1ccc2nc(-c3ccc(F)cc3)c(OCCNCc3ccc(C)c(F)c3)n2c1 &field=IC50 returns 70

// field: IC50; key: Cc1ccc2nc(-c3ccc(F)cc3)c(OCCCOc3cncnc3)n2c1 ; value = 5600

GET /value?item= Cc1ccc2nc(-c3ccc(F)cc3)c(OCCCNc3cnc(C)c(Br)c3)n2c1 &field=IC50 returns 210

The value of IC50 measured for the compound Cc1ccc2nc(-c3ccc(F)cc3)c(OCCNS(=O)(=O)c3ccc(F)c(Cl)c3)n2c1 turned out to be 400

Note to self: IC50 recorded for Cc1ccc2nc(-c3ccc(F)cc3)c(OCCCNc3ccc(F)c(C)n3)n2c1 was 60

Quick note, IC50 for Cc1ccc2nc(-c3ccc(F)cc3)c(OCCOc3ccc(F)cc3)n2c1 landed at 20

----------
# MIC80 listing for each entry below
# Test system: Mycobacterium tuberculosis
# assay.overview: Antimycobacterial activity against Mycobacterium tuberculosis H37Rv by turbidometric method
# Type: functional

- O=c1c(NCc2ccc(-c3ccccc3)cn2)c(-c2ccc(N3CCOCC3)cc2)c1=O: > 100 µM

Documented MIC80 of O=c1c(NCc2cnccn2)c(-c2ccc(N3CCOCC3)cc2)c1=O : 3.12 to 12.5 µM

The recorded MIC80 for entry Fc1ccc(OCCOc2c(-c3ccccc3)nc3ccccn23)cc1 equals < 0.8 µM

What the record says about N#Cc1ccc2nc(-c3ccccc3)c(OCCCOc3ccccc3)n2c1 : MIC80 is > 250 µM

Form: compound = COCCCOc1c(-c2ccccc2)nc2ccccn12 ; MIC80 = > 15 µM

Note to self: MIC80 recorded for Cc1ccc2nc(-c3ccccc3)c(OCCCN3CCN(C)CC3)n2c1 was > 200 µM

In plain terms, CO[C@H]1/C=C/O[C@@]2(C)Oc3c(C)c(O)c4c(O)c(c(/C=N/N5CCN(C)CC5)c(O)c4c3C2=O)NC(=O)/C(C)=C\C=C\[C@H](C)[C@H](O)[C@@H](C)[C@@H](O)[C@@H](C)[C@H](OC(C)=O)[C@@H]1C has a documented MIC80 of 0.004 µM

Record COc1ncc(NCCCOc2c(-c3ccc(F)cc3)nc3ccc(C)cn23)cc1C , field MIC80: < 0.8 µM

Value of MIC80 reported for the compound Cc1ccc2nc(-c3ccc(F)cc3)c(OCCNS(=O)(=O)c3ccc(F)c(Cl)c3)n2c1 is 3.1 µM

Item: Clc1ccc2nc(-c3ccccc3)c(OCCCOc3ccccc3)n2c1 | MIC80: < 0.5 µM

Memo: Fc1ccc(OCCOc2c(-c3ccccc3)nc3ccc(Cl)cn23)cc1 , reported MIC80: < 1 µM

Form field MIC80, entry Cc1ccc2nc(-c3ccc(F)cc3)c(OCCNCc3ccc(C)c(F)c3)n2c1 : 0.6 µM

Form field MIC80, entry Cc1ccc2nc(-c3ccccc3)c(OCCOc3ccc(F)cc3)n2c1 : < 1 µM

response.value for Cc1ccc2nc(-c3ccccc3)c(OCCCOc3ccccc3)n2c1 (field: MIC80) = < 0.5 µM

----------
Recorded MIC80 values for a group of compounds are listed next.
# Tested on: Mycobacterium tuberculosis
# assay.overview: Antimycobacterial activity against Mycobacterium tuberculosis H37Rv by turbidometric method
# Format: functional
Numeric answer only, unit µM assumed.

Use the examples below as a reference point.
- Cc1ccc2nc(-c3ccc(F)cc3)c(OCCCNc3ccc(F)c(C)c3)n2c1: 0.03
- Cc1cnc(CNc2c(-c3ccc(C(F)(F)F)cc3)c(=O)c2=O)cn1: 50
- NNC(=O)c1ccncc1: 0.02

Now, please, on to the next compound.
Measured MIC80 for this entry Cc1ccc2nc(-c3ccc(F)cc3)c(OCCCOc3cncnc3)n2c1 on Mycobacterium tuberculosis: 6.9
